# target.system: Aβ1-40 aggregation (Homo sapiens, UniProt P05067)
# Construct: purchased EZBiolab
# Sequence (P05067 672-711 limits assumed): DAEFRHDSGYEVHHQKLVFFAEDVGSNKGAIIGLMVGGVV
# test.summary: Inhibition of Aβ40 aggregation, ThT fluorescence
# Format: biochemical
# applied.conditions: inhibitor 10 µM, Aβ40 30 µM, PBS pH 7.4, 2% HFIP, 2 h 25 °C; mean ± SEM; read-out: Aβ1-40 Aggregation (I% at 10 µM)

[
  {
    "molecule": "O=C(NCC1CCN(Cc2ccccc2Cl)CC1)c1ccc2c(c1)Nc1ccccc1S2 [Compound 11b]",
    "target.system": "Aβ1-40 aggregation (Homo sapiens, UniProt P05067)",
    "units.label": "%",
    "inhibition at 10 µM": 20
  },
  {
    "molecule": "O=C(NCC1CCN(Cc2ccccc2)CC1)c1ccc2c(c1)Nc1ccccc1S2 [Compound 11a]",
    "target.system": "Aβ1-40 aggregation (Homo sapiens, UniProt P05067)",
    "units.label": "%",
    "inhibition at 10 µM": 8
  },
  {
    "molecule": "Cc1ccccc1CN1CCC(CNC(=O)c2ccc3c(c2)Nc2ccccc2S3)CC1 [Compound 11c]",
    "target.system": "Aβ1-40 aggregation (Homo sapiens, UniProt P05067)",
    "units.label": "%",
    "inhibition at 10 µM": 47
  },
  {
    "molecule": "O=C(NCCN1CCN(Cc2ccccc2F)CC1)c1ccc2c(c1)Nc1ccccc1S2 [Compound 12d]",
    "target.system": "Aβ1-40 aggregation (Homo sapiens, UniProt P05067)",
    "units.label": "%",
    "inhibition at 10 µM": 60
  }
]
